# System: RARa homodimer (NR concentration 270 nM)
# Test description: PBM binding z-score (relative to random genomic background probes); higher = stronger binding; sequences stand for … in GC…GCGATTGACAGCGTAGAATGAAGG
Reported property: PBM binding z-score

>  <Record sequence>
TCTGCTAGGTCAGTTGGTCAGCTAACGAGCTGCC

>  <Reported result>
-0.941

$$$$
>  <Record sequence>
AGAATGAGGTTATTAAGATCAGGGAATTGCGGTC

>  <Reported result>
0.273

$$$$
>  <Record sequence>
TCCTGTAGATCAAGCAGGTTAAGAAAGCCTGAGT

>  <Reported result>
-0.136

$$$$
>  <Record sequence>
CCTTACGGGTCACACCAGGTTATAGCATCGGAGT

>  <Reported result>
1.44

$$$$
>  <Record sequence>
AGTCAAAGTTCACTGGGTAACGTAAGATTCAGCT

>  <Reported result>
1.43

$$$$
>  <Record sequence>
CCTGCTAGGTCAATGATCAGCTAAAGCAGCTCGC

>  <Reported result>
-0.385

$$$$
>  <Record sequence>
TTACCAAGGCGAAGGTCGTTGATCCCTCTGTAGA

>  <Reported result>
-0.525

$$$$
>  <Record sequence>
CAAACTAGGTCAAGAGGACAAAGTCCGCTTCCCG

>  <Reported result>
0.947

$$$$
>  <Record sequence>
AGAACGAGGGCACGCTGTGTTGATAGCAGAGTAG

>  <Reported result>
-0.803

$$$$
>  <Record sequence>
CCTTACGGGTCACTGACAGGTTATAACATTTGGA

>  <Reported result>
1.52

$$$$
>  <Record sequence>
CAAACTAGGTCACCAGAAGGTCAAAGTCCGCATG

>  <Reported result>
3.53

$$$$
>  <Record sequence>
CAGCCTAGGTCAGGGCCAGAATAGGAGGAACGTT

>  <Reported result>
-0.25

$$$$
>  <Record sequence>
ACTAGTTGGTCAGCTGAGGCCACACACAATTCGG

>  <Reported result>
-0.472

$$$$
>  <Record sequence>
TTACCAAGGTGAGCTGAGGACGTTGATCCAACTC

>  <Reported result>
-0.906

$$$$
>  <Record sequence>
CAAACTAGGTCAAAAGTCAAAGTCGAGCCAACCA

>  <Reported result>
0.778

$$$$
>  <Record sequence>
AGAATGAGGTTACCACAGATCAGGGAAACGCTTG

>  <Reported result>
0.262

$$$$
>  <Record sequence>
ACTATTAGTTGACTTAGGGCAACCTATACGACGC

>  <Reported result>
0.697

$$$$
>  <Record sequence>
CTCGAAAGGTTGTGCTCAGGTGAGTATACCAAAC

>  <Reported result>
0.121

$$$$
>  <Record sequence>
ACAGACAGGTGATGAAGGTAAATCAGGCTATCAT

>  <Reported result>
0.26

$$$$
>  <Record sequence>
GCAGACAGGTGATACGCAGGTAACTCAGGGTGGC

>  <Reported result>
-0.408

$$$$
>  <Record sequence>
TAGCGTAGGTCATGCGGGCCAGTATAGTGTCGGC

>  <Reported result>
-0.473

$$$$
>  <Record sequence>
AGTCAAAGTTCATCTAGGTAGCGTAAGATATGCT

>  <Reported result>
1.85

$$$$
>  <Record sequence>
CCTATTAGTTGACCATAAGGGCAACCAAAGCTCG

>  <Reported result>
2.44

$$$$
>  <Record sequence>
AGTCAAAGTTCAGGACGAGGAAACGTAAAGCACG

>  <Reported result>
-0.0138

$$$$
>  <Record sequence>
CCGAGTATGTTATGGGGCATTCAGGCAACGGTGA

>  <Reported result>
0.535

$$$$
>  <Record sequence>
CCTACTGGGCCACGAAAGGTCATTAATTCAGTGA

>  <Reported result>
1.1

$$$$
>  <Record sequence>
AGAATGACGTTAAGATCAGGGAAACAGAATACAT

>  <Reported result>
0.719

$$$$
>  <Record sequence>
GCTCGGAGGACAAGGTCATAGCTTTGTCCGTAGA

>  <Reported result>
-0.351

$$$$
>  <Record sequence>
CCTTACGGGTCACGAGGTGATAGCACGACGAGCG

>  <Reported result>
0.649

$$$$
>  <Record sequence>
GCTTACGGGCCAAAGGTTATAGCATGAATAGAAT

>  <Reported result>
0.0801

$$$$
>  <Record sequence>
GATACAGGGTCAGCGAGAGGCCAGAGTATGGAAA

>  <Reported result>
0.19

$$$$
>  <Record sequence>
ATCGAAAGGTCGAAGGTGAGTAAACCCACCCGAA

>  <Reported result>
0.979

$$$$
>  <Record sequence>
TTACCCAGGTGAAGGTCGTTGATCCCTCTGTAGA

>  <Reported result>
-1.08

$$$$
>  <Record sequence>
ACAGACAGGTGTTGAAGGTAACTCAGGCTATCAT

>  <Reported result>
-0.513

$$$$
>  <Record sequence>
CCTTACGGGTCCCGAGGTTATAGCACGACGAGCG

>  <Reported result>
0.138

$$$$
>  <Record sequence>
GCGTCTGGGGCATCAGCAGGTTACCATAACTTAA

>  <Reported result>
-0.422

$$$$
>  <Record sequence>
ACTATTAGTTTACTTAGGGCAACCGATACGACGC

>  <Reported result>
0.904

$$$$
>  <Record sequence>
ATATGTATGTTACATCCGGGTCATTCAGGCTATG

>  <Reported result>
0.761

$$$$
>  <Record sequence>
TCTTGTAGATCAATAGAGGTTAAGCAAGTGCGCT

>  <Reported result>
0.018

$$$$
>  <Record sequence>
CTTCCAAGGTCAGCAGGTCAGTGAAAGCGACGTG

>  <Reported result>
1.77

$$$$
>  <Record sequence>
TCGAGTAGGTTAGTCGGGGCATCCAGCCAACATA

>  <Reported result>
-0.138

$$$$
>  <Record sequence>
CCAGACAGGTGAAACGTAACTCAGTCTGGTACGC

>  <Reported result>
0.128

$$$$
>  <Record sequence>
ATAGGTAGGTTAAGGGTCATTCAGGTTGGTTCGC

>  <Reported result>
3.3

$$$$
>  <Record sequence>
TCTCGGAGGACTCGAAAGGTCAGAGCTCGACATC

>  <Reported result>
-0.0102

$$$$
>  <Record sequence>
TCTTGTAGATCAACAGGAGGTGAAGAAAGATCGA

>  <Reported result>
-0.0996

$$$$
>  <Record sequence>
CTGGAAAGGTCGGTTGAGGTGAGTATACGGATAA

>  <Reported result>
0.351

$$$$
>  <Record sequence>
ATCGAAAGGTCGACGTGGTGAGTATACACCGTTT

>  <Reported result>
0.487

$$$$
>  <Record sequence>
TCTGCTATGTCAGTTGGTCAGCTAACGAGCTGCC

>  <Reported result>
-1.02

$$$$
>  <Record sequence>
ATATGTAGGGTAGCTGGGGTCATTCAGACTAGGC

>  <Reported result>
0.388

$$$$
>  <Record sequence>
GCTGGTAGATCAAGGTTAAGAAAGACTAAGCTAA

>  <Reported result>
0.451

$$$$
>  <Record sequence>
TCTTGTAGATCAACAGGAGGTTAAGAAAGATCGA

>  <Reported result>
-0.178

$$$$
